Experiment: in vitro
Conditions: human, plasma, PPB
The label Condition met is reserved for fraction unbound at 5 h strictly under 0.01; Condition not met covers values equal to or above it.

{"SMILES_INPUT": "CC(C)Oc1cc(Nc2nc(N[C@@H](C)c3ccc(F)cc3)nc(NC(CO)CO)c2Cl)n[nH]1", "ANSWER_LABEL": "Condition not met"}
{"SMILES_INPUT": "COc1ccc(COc2nc(Br)cnc2NS(=O)(=O)c2ccc(C)cc2)cc1OCCN(C)C", "ANSWER_LABEL": "Condition met"}

QUERY: Criterion: fraction unbound at 5 h strictly below 0.01. Is it met by N#Cc1cccc(C(=O)NC[C@@H](O)CN2CCC(Oc3ccc(Cl)c(Cl)c3)CC2)c1 ?
RESULT: Condition not met

QUERY: Next entry: CC(C)(C)NS(=O)(=O)c1cncc(-c2ccc3nc(N)nn3c2)c1
RESULT: Condition not met

QUERY: What about Cc1cn([C@H]2CCCN([C@@H](CC(C)C)c3ccc(C(=O)O)c(Oc4cccc(Cl)c4)c3)C2)c(=O)[nH]c1=O ?
RESULT: Condition not met

* * *

Test: physchem
Conditions: octan-1-ol/water, pH 7.4, LogD7.4
PROPERTY_MEASURED: logD
Returns: the value as a bare number; no unit string appended.

{"COMPOUND": "COc1ccc(-c2coc3cc(O)ccc3c2=O)cc1", "MEAS_VALUE": 3.05}

QUERY: What measured logD goes with CN(C)c1ncnc2nc[nH]c12 ?
RESULT: 0.95

QUERY: Same question, Clc1ccc2c(c1)C(N1CCNCC1)=Nc1ccccc1O2 this time
RESULT: 2.28

* * *

Assay: physchem
Settings: octan-1-ol/water, pH 7.4, LogD7.4
Mark Criterion met for reported logD of 2 or greater; mark Criterion not met for anything smaller.

{"COMPOUND": "Cc1cc(N)nc(CCNC(=O)c2ccc(C#N)cc2)c1", "ANSWER_LABEL": "Criterion not met"}
{"COMPOUND": "COc1cc2ncnc(Nc3cccc(C)c3)c2cc1OC", "ANSWER_LABEL": "Criterion met"}
{"COMPOUND": "Cc1ccccc1C(=O)N1CCN(c2ccccn2)CC1", "ANSWER_LABEL": "Criterion met"}
{"COMPOUND": "Nc1ncc(-c2ccc(F)cc2)[nH]1", "ANSWER_LABEL": "Criterion not met"}
{"COMPOUND": "O=C1CCC(=O)N1C(CCc1ccncc1)COc1ccc(-c2cccc([N+](=O)[O-])c2)cc1 (stereo unspecified)", "ANSWER_LABEL": "Criterion met"}

Moving on to another compound below.
QUERY: Check this compound for logD at or above 2: Nc1ncnc2c1c(COc1cccc(Cl)c1)nn2C1CCOCC1
RESULT: Criterion met

* * *

Assay: physchem
Conditions: pH 7.4 buffer
Catalogue of solubility thermodynamic values
A number alone suffices; assume µM.

{"COMPOUND": "Nc1nc(-c2ccccc2)cs1", "solubility thermodynamic [µM]": 832}
{"COMPOUND": "Cc1ncc(-c2ccnc(Nc3ccc(N4CCN(S(C)(=O)=O)CC4)cc3)n2)n1C(C)C", "solubility thermodynamic [µM]": 8.9}
{"COMPOUND": "COc1cc2ncnc(Nc3cnn(CC(=O)Nc4cccc(F)c4)c3)c2cc1OC", "solubility thermodynamic [µM]": 2}
{"COMPOUND": "CC(C)C(=O)Nc1ccc([N+](=O)[O-])c(C(F)(F)F)c1 [FLUTAMIDE]", "solubility thermodynamic [µM]": 89.1}
{"COMPOUND": "Nc1nc(N)c(C(=O)Nc2ccccn2)nc1Cl", "solubility thermodynamic [µM]": 4.5}

QUERY: Form field: reported solubility thermodynamic of CCn1c(-c2nonc2N)nc2c(C#CC(C)(C)O)ncc(OCC3CCCNC3)c21 (stereo not given)
RESULT: 135

QUERY: What about Cc1ccc2nc(NCCN)c3ncc(C)n3c2c1 ?
RESULT: 246

QUERY: Input CC(=O)NC1CCN(C(=O)CN2CCN(CCc3c(-c4cc(C)cc(C)c4)[nH]c4sc(C(C)(C)C(=O)N5C6CCC5CC6)cc34)CC2)C1 (stereo not given)
RESULT: 107

QUERY: Query COc1cc2ncnc(Nc3ccc(F)c(Cl)c3)c2cc1CN(C)[C@H](C)C(N)=O next
RESULT: 15.5

QUERY: Record: CCOc1cc2ncc(C#N)c(Nc3ccc(F)c(Cl)c3)c2cc1NC(=O)/C=C/CN(C)C
RESULT: 1.5
